experimental_target: Ribosomal protein S6 kinase alpha-6 (Homo sapiens, UniProt Q9UK32); also: in the data inactive means no Kd found up to 30 µM
Sequence (Q9UK32 whole entry): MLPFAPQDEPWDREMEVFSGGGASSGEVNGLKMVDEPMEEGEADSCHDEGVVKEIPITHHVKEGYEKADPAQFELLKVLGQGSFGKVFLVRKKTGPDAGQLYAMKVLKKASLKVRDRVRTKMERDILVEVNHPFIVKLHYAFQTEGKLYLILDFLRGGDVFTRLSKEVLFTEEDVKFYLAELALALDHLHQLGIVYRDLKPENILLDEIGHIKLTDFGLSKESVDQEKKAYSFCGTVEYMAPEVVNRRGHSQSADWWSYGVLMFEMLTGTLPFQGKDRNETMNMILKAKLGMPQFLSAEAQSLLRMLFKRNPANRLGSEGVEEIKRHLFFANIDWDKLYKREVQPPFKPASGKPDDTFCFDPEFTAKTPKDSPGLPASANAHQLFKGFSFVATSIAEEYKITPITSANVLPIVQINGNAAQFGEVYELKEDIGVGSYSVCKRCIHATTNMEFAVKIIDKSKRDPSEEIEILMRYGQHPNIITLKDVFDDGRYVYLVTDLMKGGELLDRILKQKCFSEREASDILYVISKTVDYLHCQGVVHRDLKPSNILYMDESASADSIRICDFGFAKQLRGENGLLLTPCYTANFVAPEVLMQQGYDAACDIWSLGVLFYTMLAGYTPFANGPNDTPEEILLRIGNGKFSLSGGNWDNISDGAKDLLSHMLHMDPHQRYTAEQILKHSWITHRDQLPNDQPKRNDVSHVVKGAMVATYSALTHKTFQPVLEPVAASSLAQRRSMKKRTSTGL
The source made the active and inactive calls.
Possible outcomes: Yes for active, No for inactive

INSERT INTO assay_data (molecule, category_label) VALUES
  ('CNC(=O)c1cc(COc2nnc(Nc3ccc(Cl)cc3)c3ccoc23)ccn1', 'No'),
  ('C[C@@H]1COC(Nc2ccc3ncnc(Nc4ccc(OCc5nccs5)c(Cl)c4)c3c2)=N1', 'No'),
  ('O=S(=O)(c1cccc2cnccc12)N1CCCNCC1', 'No'),
  ('CC1(COc2ccc3c(c2)ncn3-c2ccc3cccc(N4CCC(N)CC4)c3n2)COC1', 'Yes'),
  ('CC[C@@](C)(Nc1ccnc(-c2c[nH]c3ncccc23)n1)C(=O)NCC(F)(F)F', 'No'),
  ('O=S(=O)(c1cccc2c(O)nccc12)N1CCCNCC1 [HYDROXYFASUDIL]', 'No'),
  ('Cc1cc(-c2cc(OC(=O)c3ccccc3)ccc2Cl)cc2nnc(Nc3ccc(OCCN4CCCC4)cc3)nc12', 'No'),
  ('COc1cc2nccc(Oc3ccc(NC(=O)C4(C(=O)Nc5ccc(F)cc5)CC4)cc3)c2cc1OC [CABOZANTINIB]', 'No'),
  ('Cn1c(=O)n(-c2ccc(C(C)(C)C#N)cc2)c2c3cc(-c4cnc5ccccc5c4)ccc3ncc21', 'No'),
  ('NC(=O)c1ccc(N(C(N)=O)c2c(F)cccc2F)nc1-c1ccc(F)cc1F', 'No'),
  ('O=C(NC[C@H](O)CO)c1ccncc1Nc1ccc(I)cc1F', 'No'),
  ('CCOc1ccn(-c2ccc(F)cc2)c(=O)c1C(=O)Nc1ccc(Oc2ccnc(N)c2Cl)c(F)c1', 'No'),
  ('CCN1CCN(Cc2ccc(Nc3ncc(F)c(-c4cc(F)c5nc(C)n(C(C)C)c5c4)n3)nc2)CC1', 'No'),
  ('NC[C@@](O)(c1ccc(Cl)cc1)c1ccc(-c2cn[nH]c2)cc1', 'No'),
  ('Cc1cc(C(=O)Nc2cc(Oc3ccc4nc(NC(=O)C5CC5)cn4n3)ccc2C)n(C)n1', 'No'),
  ('CCc1cc2c(cc1N1CCC(N3CCOCC3)CC1)C(C)(C)c1[nH]c3cc(C#N)ccc3c1C2=O', 'No'),
  ('COc1cc(F)c(F)c(Nc2ccc(I)cc2F)c1NS(=O)(=O)C1(C[C@H](O)CO)CC1', 'No'),
  ('Cc1c(Cn2c(C)nc3c(C(=O)O)cc(N4CCOCC4)cc32)cccc1C(F)(F)F', 'No'),
  ('FC(F)(F)c1ccc(CNc2ccc(Cc3c[nH]c4ncc(Cl)cc34)cn2)cn1', 'No'),
  ('CC(C)CC(=O)Nc1[nH]nc2c1CN(C(=O)C1CCN(C)CC1)C2(C)C', 'No'),
  ('COc1cc2ncnc(Nc3ccc(O)cc3)c2cc1OC', 'Yes'),
  ('CN(c1ncccc1CNc1nc(Nc2ccc3c(c2)CC(=O)N3)ncc1C(F)(F)F)S(C)(=O)=O', 'No'),
  ('COc1cccc2cc(-c3nc([C@H]4CC[C@H](C(=O)O)CC4)n4ncnc(N)c34)[nH]c12', 'No'),
  ('N#CCNC(=O)c1ccc(-c2ccnc(Nc3ccc(N4CCOCC4)cc3)n2)cc1', 'No'),
  ('COCCN1CCN(Cc2ccc(-c3n[nH]c4c3C(=O)c3c(NC(=O)NN5CCOCC5)cccc3-4)cc2)CC1', 'No'),
  ('COc1cc2ncnc3c2cc1OCCCCCN(C)Cc1ccc(Br)cc1N3', 'No'),
  ('C=CC(=O)Nc1cccc(Nc2nc(Nc3ccc(N4CCN(C(C)=O)CC4)cc3OC)ncc2C(F)(F)F)c1', 'No'),
  ('c1cc(OCCN2CCCCC2)cc(-c2n[nH]c3ccc(-c4nc[nH]n4)cc23)c1', 'No'),
  ('S=C(NCc1ccc2c(c1)OCO2)N1CCN(c2ncnc3c2oc2ccccc23)CC1', 'No'),
  ('CNC(=O)c1cccc(-c2ccc3c(N4CCOC[C@@H]4C)nc(N4CCOC[C@@H]4C)nc3n2)c1', 'No'),
  ('CCc1nc(C(N)=O)c(Nc2ccc(N3CCC(N4CCN(C)CC4)CC3)c(OC)c2)nc1NC1CCOCC1', 'No'),
  ('COc1cc(Nc2ncc(F)c(Nc3ccc4c(n3)N(COP(=O)(O)O)C(=O)C(C)(C)O4)n2)cc(OC)c1OC', 'No'),
  ('O[C@H]1CC[C@H](Nc2ncc3nc(Nc4c(F)cc(F)cc4F)n([C@H]4CCOC4)c3n2)CC1', 'No');
